Experiment: Stability in 100 mM phosphate buffer at pH 7.4 assessed as compound degradation by HPLC
Assay type: physicochemical
measure: half-life (h)
The response must be a number in h with no trailing unit.

// half-life value for CCCCCCNC(=O)Oc1ccc(Cl)cc1C(=O)Nc1ccc(Cl)c(Cl)c1 : 43

----------
Record form. Attribute: MIC. Fill in for each entry.
System: Mycobacterium kansasii
Experiment: Antimycobacterial activity against Mycobacterium kansasii 6509/96 after 21 days by micromethod
Format: functional
Details: 6509/96, 504 h
Dear colleague, please return just the value in µM, with no unit written.

Entry CCCCNC(=O)Oc1ccc(Cl)cc1C(=O)Nc1ccc(Cl)c(Cl)c1 under Mycobacterium kansasii had MIC of 4

Lab entry: Mycobacterium kansasii assay, compound CCNC(=O)Oc1ccc(Cl)cc1C(=O)Nc1ccc(Cl)cc1 , MIC = 8

Mycobacterium kansasii data for CCCCNC(=O)Oc1ccc(Cl)cc1C(=O)Nc1ccc(Cl)cc1 ; its MIC: 4

Short answer on Mycobacterium kansasii for CCCCCCCCCCNC(=O)Oc1ccc(Cl)cc1C(=O)Nc1ccc(Cl)c(Cl)c1 , MIC: 4

Param item: CCCCCNC(=O)Oc1ccc(Cl)cc1C(=O)Nc1ccc(Cl)c(Cl)c1 ; param system: Mycobacterium kansasii; output MIC: 4

Summary: CCCCCCCCCNC(=O)Oc1ccc(Cl)cc1C(=O)Nc1cccc(Cl)c1 , Mycobacterium kansasii, MIC = 4

Noted MIC for CCCCCCCNC(=O)Oc1ccc(Cl)cc1C(=O)Nc1ccc(Cl)c(Cl)c1 , tested on Mycobacterium kansasii: 4

----------
Test system: Mycobacterium avium
Test: Antimycobacterial activity against Mycobacterium avium 330/88 after 21 days by micromethod
Assay type: functional
Settings: 330/88, 504 h
Exercise: state measured MIC for each of the compounds provided.
Express your answer in µM, writing the number without its unit.

Value of measured MIC for the entry CCCCCCCNC(=O)Oc1ccc(Cl)cc1C(=O)Nc1ccc(Cl)c(Cl)c1 : 8

Just so you know, measured MIC for CCCCCCCCNC(=O)Oc1ccc(Cl)cc1C(=O)Nc1ccc(Cl)cc1 came out at 8

Notebook: CCCCCCCCNC(=O)Oc1ccc(Cl)cc1C(=O)Nc1cccc(Cl)c1 , MIC read as 4

MIC for CCCCCCNC(=O)Oc1ccc(Cl)cc1C(=O)Nc1ccc(Cl)cc1 is 8

response.value for CCCCCCCCNC(=O)Oc1ccc(Cl)cc1C(=O)Nc1ccc(Cl)c(Cl)c1 (field: MIC) = 8

Value of MIC reported for the compound CCCCCCNC(=O)Oc1ccc(Cl)cc1C(=O)Nc1ccc(Cl)c(Cl)c1 is 8

----------
Tested on: Mycobacterium kansasii
Assay: Antimycobacterial activity against Mycobacterium kansasii 6509/96 after 21 days by micromethod
Assay type: functional
Conditions: 6509/96, 504 h
Task for the reader: assign each of the following compounds its reported MIC.
Number in µM, nothing else.

For reference, reported MIC for CCNC(=O)Oc1ccc(Cl)cc1C(=O)Nc1ccc(Cl)c(Cl)c1 stands at 4

The compound identified as CCCCCNC(=O)Oc1ccc(Cl)cc1C(=O)Nc1ccc(Cl)cc1 registered its MIC at 4

Quick note, MIC for CCCCCCCCCCCNC(=O)Oc1ccc(Cl)cc1C(=O)Nc1ccc(Cl)cc1 landed at 8

MIC for CCCCNC(=O)Oc1ccc(Cl)cc1C(=O)Nc1cccc(Cl)c1 is 16

MIC for CCCCCCNC(=O)Oc1ccc(Cl)cc1C(=O)Nc1ccc(Cl)c(Cl)c1 is 2

Value of measured MIC for the entry CCCCCCCCCCCNC(=O)Oc1ccc(Cl)cc1C(=O)Nc1cccc(Cl)c1 : 8

# MIC (compound: CCCCCCCNC(=O)Oc1ccc(Cl)cc1C(=O)Nc1ccc(Cl)cc1 ) is 4

Summary for this compound, CCCCCNC(=O)Oc1ccc(Cl)cc1C(=O)Nc1cccc(Cl)c1 : MIC is 8

Entry under test: CCCCCCCCNC(=O)Oc1ccc(Cl)cc1C(=O)Nc1cccc(Cl)c1 . Its MIC was 8

Reported MIC ( CCCCCCCCNC(=O)Oc1ccc(Cl)cc1C(=O)Nc1ccc(Cl)c(Cl)c1 ) = 4

Kindly note the recorded MIC for NNC(=O)c1ccncc1 [ISONIAZID] , which is 4
